From: patent EP4768499A1

# protocol.details: Metabolic stability test: liver microsomal stability assay
# Format: in vitro ADME, mouse
# details: male, pH 7.4; mouse liver microsomes 0.5 mg protein/mL, compound 1 µM, presence of NADPH; read-out: Mouse Hepatic Microsome CLh,int NADPH(+)
Starred links: 1 amine or outer side, 2 acyl side, 3 side chain; linkers in the order of their positions; H or OH if unused. Positions of bridges follow the written chain, without caps; N, C: chain ends. Non-standard residues stand in square brackets, D forms with d. Residues, ends and D or L forms follow the SMILES beside them. *: point of attachment. NMeF = CN[C@@H](Cc1ccccc1)C(=O)O; NMeβAla = CN(CCC(=O)[*:2])[*:1]; NMeL = CN[C@@H](CC(C)C)C(=O)O; NMeA = CN[C@@H](C)C(=O)O; Piperidide = C1CCN(*)CC1; Abu = CC[C@H](N)C(=O)O
property.measured: microsomal CLint at 1 µM
Write your answer as a measured quantity: the number, then the unit.

get_value(item= CC[C@@H]1NC(=O)[C@H](Cc2ccccc2)N(C)C(=O)[C@H]([C@@H](C)CC)NC(=O)[C@H](CC(C)C)N(C)C(=O)[C@H](CC(C)C)NC(=O)CCN(C)C(=O)C[C@@H](C(=O)N2CCCCC2)NC(=O)[C@H](CC(C)C)N(C)C(=O)[C@H](C)N(C)C(=O)[C@H]([C@@H](C)O)NC(=O)[C@H](CC(C)C)N(C)C(=O)[C@H](C(C)C)NC(=O)[C@H](Cc2ccccc2)N(C)C1=O [pd101] ([NMeβAla]L[NMeL]I[NMeF][Abu][NMeF]V[NMeL]T[NMeA][NMeL]D-Piperidide; lactam N-13) , readout=microsomal CLint at 1 µM) returns 41.1 µL/min/mg

###

Each entry below carries its recorded Mouse Hepatic Microsome CLh,int NADPH(-).
# protocol.details: Metabolic stability test: liver microsomal stability assay
# Type: in vitro ADME, mouse
# details: mouse liver microsomes 0.5 mg protein/mL, compound 1 µM, absence of NADPH
Positions of bridges follow the written chain, without caps; N, C: chain ends. Non-standard residues stand in square brackets, D forms with d. Residues, ends and D or L forms follow the SMILES beside them. *: point of attachment. NMeF = CN[C@@H](Cc1ccccc1)C(=O)O; NMeI = CC[C@H](C)[C@H](NC)C(=O)O; NMeD = CN[C@@H](CC(=O)O)C(=O)O; NMeL = CN[C@@H](CC(C)C)C(=O)O; NMeA = CN[C@@H](C)C(=O)O; Piperidide = C1CCN(*)CC1; Sar = CNCC(=O)O
Please respond with the number in µL/min/mg Protein and leave the unit unwritten.

CC[C@H](C)[C@@H]1NC(=O)[C@H]([C@@H](C)CC)N(C)C(=O)[C@@H](C)NC(=O)C[C@@H](C(=O)N2CCCCC2)N(C)C(=O)[C@H](C(C)C)NC(=O)[C@H](Cc2ccccc2)N(C)C(=O)[C@H](C(C)C)NC(=O)[C@H](CC(C)C)N(C)C(=O)[C@H](C)NC(=O)CN(C)C(=O)[C@H](CC(C)C)N(C)C(=O)[C@H](C(C)C)NC(=O)[C@H](C)N(C)C(=O)[C@H](Cc2ccccc2)N(C)C1=O [pd074] ([dA][NMeI]I[NMeF][NMeA]V[NMeL][Sar]A[NMeL]V[NMeF]V[NMeD]-Piperidide; lactam N-14) ... 26.9

# evaluate next
get_value(item= CC[C@H](C)[C@@H]1NC(=O)[C@H]([C@@H](C)CC)N(C)C(=O)[C@@H](C)NC(=O)C[C@@H](C(=O)N2CCCCC2)N(C)C(=O)[C@H](Cc2ccccc2)N(C)C(=O)[C@H](C(C)C)NC(=O)[C@H](C)N(C)C(=O)[C@H](CC(C)C)N(C)C(=O)[C@H](C)NC(=O)CN(C)C(=O)[C@H](CC(C)C)N(C)C(=O)[C@H](C)N(C)C(=O)[C@H](Cc2ccccc2)N(C)C1=O [pd153] ([dA][NMeI]I[NMeF][NMeA][NMeL][Sar]A[NMeL][NMeA]V[NMeF][NMeD]-Piperidide; lactam N-13) , readout=Mouse Hepatic Microsome CLh,int NADPH(-)) returns 26.0
